system: Nucleic Acid; settings: Bos taurus
Description: In vitro binding affinity towards calf thymus (CT DNA)
Note to self: use satisfied only for ΔTm readings below 3; a reading exactly at 3 still gets not satisfied.

Recorded results for 3 compounds are shown here.
N=C(N)c1ccc(Cc2ccc(-c3ccc(C(=N)N)nc3)o2)cc1    satisfied
N=C(N)c1ccc(-c2ccc(-c3ccc(C(=N)N)cn3)o2)nc1    not satisfied
N=C(N)c1ccc(-c2ccc(-c3cccc(C(=N)N)c3)o2)nc1    not satisfied

### Prompt Say whether its ΔTm is strictly beneath 3. Entry: N=C(N)c1ccc(-c2ccc(-c3ccc(C(=N)N)cc3)o2)cc1
### Response not satisfied

### Prompt Please answer likewise for N=C(N)c1ccc(OCCCCCOc2ccc(C(=N)N)cc2)cc1
### Response satisfied

### Prompt Please answer likewise for N=C(N)c1ccc(-c2ccc(-c3ccc(C(=N)N)nc3)o2)cc1
### Response not satisfied

### Prompt Please answer likewise for N=C(N)c1ccc(-c2ccc(-c3ccc(C(=N)N)cn3)o2)cc1
### Response not satisfied

### Prompt Please answer likewise for N=C(N)c1ccc(-c2ccc(-c3ccc(C(=N)N)nc3)o2)cn1
### Response not satisfied

----------
test system: Nucleic Acid
Could you label it 1.0 if measured ΔTm is 7 or higher, and 0.0 otherwise?

Recorded results for 4 molecules are shown here.
CO/N=C(\N)c1ccc(-c2ccc(-c3ccc(/C(N)=N/OC)cn3)o2)cc1    0.0
N=C(N)c1ccc(-c2ccc(-c3ccc(C(=N)N)nc3)o2)cc1    1.0
CONC(=N)c1ccc(-c2ccc(-c3ccc(C(=N)NOC)nc3)o2)cn1    0.0
N=C(N)c1ccc(-c2ccc(-c3ccc(C(=N)N)cn3)o2)nc1    1.0

### Prompt # check: ΔTm of N=C(N)c1ccc(-c2ccc(-c3cccc(C(=N)N)c3)o2)nc1 is greater than or equal to 7
### Response 1.0

### Prompt Please answer likewise for CONC(=N)c1ccc(-c2ccc(-c3ccc(C(=N)NOC)cn3)s2)cc1
### Response 0.0

### Prompt Please answer likewise for N=C(N)c1ccc(Cc2ccc(-c3ccc(C(=N)N)nc3)o2)cc1
### Response 0.0

### Prompt Please answer likewise for N/C(=N\O)c1ccc(-c2ccc(-c3ccc(/C(N)=N\O)cn3)o2)nc1
### Response 0.0

----------
tested on: Mus musculus; assay: In vivo average survival rate of mouse infected by T.b. rhodesiense was determined for a period of 60 days at dose of 20 mg/kg by i.p. administration; assay type: functional; details: route intraperitoneal
parameter: Survival (days)
Just the number please, in days, no unit attached.

Check out these entries, answers already filled in.
N=C(N)c1ccc(-c2ccc(-c3ccc(C(=N)N)nc3)o2)cc1    56.5
N=C(N)c1ccc(-c2ccc(-c3ccc(C(=N)N)cn3)o2)nc1    60
N=C(N)c1ccc(-c2ccc(-c3cccc(C(=N)N)c3)o2)nc1    26.25
N=C(N)c1ccc(-c2ccc(-c3ccc(C(=N)N)cc3)o2)cc1    52.5
N=C(N)c1ccc(-c2ccc(-c3ccc(C(=N)N)nc3)o2)cn1    59
N=C(N)c1ccc(-c2ccc(-c3ccc(C(=N)N)cn3)o2)cc1    60

--- query ---
### Prompt Observed Survival on Mus musculus for N=C(N)c1ccc(OCCCCCOc2ccc(C(=N)N)cc2)cc1 , please.
### Response 40.8
